Where do the numbers come from? From patent US11618767B2.

Measurement record for GR-LBD (Homo sapiens, UniProt P04150); quantity recorded: pIC50.
pIC50: −log10 of the molar value.

These solved cases illustrate the format of a correct answer.
C[C@]12C=CC(=O)C=C1CC[C@@H]1[C@@H]2[C@@H](O)C[C@@]2(C)[C@H]1C[C@H]1O[C@H](c3ccc(Cc4cccc(C(=O)O)c4)cc3F)O[C@]12C(=O)CO [Example 10]: < 6.70
COc1ccc(OCc2ccccc2C(=O)O)c(F)c1[C@@H]1O[C@@H]2C[C@H]3[C@@H]4CCC5=CC(=O)C=C[C@]5(C)[C@H]4[C@@H](O)C[C@]3(C)[C@]2(C(=O)CO)O1 [Example 13]: < 6.70
C[C@]12C=CC(=O)C=C1CC[C@@H]1[C@@H]2[C@@H](O)C[C@@]2(C)[C@H]1C[C@H]1O[C@H](c3ccc(Oc4cccc(C(=O)O)c4)cc3)O[C@]12C(=O)CO [Example 8]: > 6.70
C[C@]12C=CC(=O)C=C1CC[C@@H]1[C@@H]2[C@@H](O)C[C@@]2(C)[C@H]1C[C@H]1O[C@H](c3ccc(Cc4ccc(C(=O)O)cc4)cc3F)O[C@]12C(=O)CO (single isomer, unassigned) [Example 2]: 8.35
C[C@]12C=CC(=O)C=C1CC[C@@H]1[C@@H]2[C@@H](O)C[C@@]2(C)[C@H]1C[C@H]1O[C@@H](c3ccc(Cc4cccc(C(=O)O)c4)cc3F)O[C@]12C(=O)CO [Example 9]: > 6.70

Now turn to the next molecule.
Query block: Give the reported pIC50 for this molecule. COc1ccc(OCc2cccc(C(=O)O)c2)c(F)c1[C@H]1O[C@@H]2C[C@H]3[C@@H]4CCC5=CC(=O)C=C[C@]5(C)[C@H]4[C@@H](O)C[C@]3(C)[C@]2(C(=O)CO)O1 [Example 12]
Result block: > 6.70
